# METHOD SUMMARY: refractive index (Na D-line) (dimensionless)
# MEASUREMENT PARAMETERS: 298.15 K; 101.33 kPa; Liquid; Standard Abbe refractometry
METRIC NAME: refractive index
Please state the value as a number alone, without comment.

*Q* Please look at this compound and report its refractive index: CCCCC(=O)OC [methyl pentanoate]
*A* 1.3968

*Q* Return refractive index (reported value) for this compound: CC(C)CC(C)(C)C [2,2,4-trimethylpentane]
*A* 1.389

*Q* Consider the compound COC(C)=O [methyl ethanoate] and give its recorded refractive index.
*A* 1.3588

*Q* State its refractive index for this compound: CCCCCCCC [octane]
*A* 1.3952

*Q* Return value of refractive index for input CCCC(=O)OC [methyl butanoate] , no commentary.
*A* 1.3845

====

# MEASUREMENT PARAMETERS: 298.15 K; 100 kPa; Liquid; Vibrating tube method
# mass density >= 900 kg/m3 gives fulfilled, anything below gives not fulfilled

CC(C)CC(C)(C)C [2,2,4-trimethylpentane] :: not fulfilled
CCCCCCCC [octane] :: not fulfilled

*Q* Reported mass density reaches at least 900 kg/m3 for COC(C)=O [methyl ethanoate] ?
*A* fulfilled
